Values compiled from patent US20190241648A1.

targetOfAssay: T1, human ApoC3 (huApoC3), native protein purified from human serum (human, UniProt P02656 21-99)
T1 construct: Athens Research and Technology; randomly biotinylated in some assays; also called Apolipoprotein C3
T1 sequence (P02656 21-99): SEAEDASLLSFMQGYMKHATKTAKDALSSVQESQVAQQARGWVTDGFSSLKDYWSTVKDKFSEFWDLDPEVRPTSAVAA
protocolDescription: SPR Biacore, huApoC3 on chip, scFv-Fc as analyte
Collected kon values appear next to each entry.
API: value field is a number in M⁻¹ s⁻¹; no unit string.

Example results:
11H1 scFv-Fc (Fc fusion, scFv-Fc format) VH: ELQLVESGGGLVQPGGSLRLSCAASGFTFSSYSMRWVRQAPGKGLEWLSSIKSDGSITSYADSVKGRFTMSRDNAKNTLYLQMNSLKSEDTAMYYCTNQGYINWGQGTQVTVSS VL: ATMLTQSPGSLTIVPGESASISCRASQSLIHSAGKTYFYWLLQKPGQRPQLLIYQVSNRESGVPDRFTGSGSGTDFTLKISGVKAEDAGVYYCAQGTYNPKTFGQGTKLEIK: 122000
5A11 scFv-Fc (Fc fusion, scFv-Fc format) VH: QVQVQESGPGLVKPSQTLSLTCTVSGVSITTRYYAWSWIRQPPGKGLEWMGVIAYDGSTYYSPSLKSRTSISRDTSKNQFSLQLTSVTPEDTAVYYCARVRLIEAPYEYDYWGQGTQVTVSS VL: QAVVTQEPSLSVSPGGTVTLTCGLSSGSVTTRSYPGWFQQTPGQAPRSLIHSTSSRHSGIPTRFSGSISGNKAALTITGAQPEDEADYYCALDIGSYIVFGGGTHLTVL: 1.44e+06

Please look at the following binder next.
Param item = 5A7 scFv-Fc (Fc fusion, scFv-Fc format) VH: EVQVQESGPGLVKPSQTLSLTCTVSGASITNRRYAWTWIRQPPGKGLEWMGVIVYDGNTHVSPSLRSRTSISRDTSKNQFSLQLSSLTPEDTAVYYCARVLLLRDPLSLDYWGQGTQVTVSS VL: SSALTQPPSMSGTLGKTLTISCAGTSSDIGAYNFVSWYQQLPGTAPKLLIYDIDKRASGIPDRFSGSKSGNTASLSISGLQSEDEADYYCAAYGSRDNVVFGGGTHLTVL ; retrieve measured kon.
1.35e+06
